assay: Suppression of high glucose stimulated insulin secretion in mouse pancreatic islets at 200 uM treated for 24 hrs followed by glucose stimulation for 20 mins by HTRF assay relative to control; type: ADME, cell-based; conditions: pancreatic islet
Measured endpoint: Activity

Look over these answered cases.
- Compound: "CCCC1(O)OC(O)(CCC(=O)OC)C(C(=O)OC)=C1C (configuration not stated)"
  Activity: "Non-Toxic"
- Compound: "CCCc1oc(CCC(=O)O)c(C(=O)O)c1C"
  Activity: "Toxic"
- Compound: "CCc1oc(CCC(=O)O)c(C(=O)O)c1CC"
  Activity: "Non-Toxic"
- Compound: "CCc1oc(CCC(=O)OC)c(C(=O)OC)c1CC"
  Activity: "Toxic"
- Compound: "CCCCCc1oc(CCC(=O)O)c(C(=O)O)c1C"
  Activity: "Toxic"
- Compound: "CCCCCc1oc(CCC(=O)OC)c(C(=O)OC)c1C"
  Activity: "Non-Toxic"

Attention now turns to another entry.
State, in one line, measured Activity of COC(=O)CCc1oc2c(c1C(=O)OC)CCCC2
Toxic

---

assay: Half life in mouse at 1 mg/kg, iv; type: ADME, organism-based; details: in vivo
Measured endpoint: half-life
The answer consists of two parts: a number and, after it, its unit.

State, in one line, measured half-life of CCCc1oc(CCC(=O)O)c(C(=O)O)c1C
4.5 h

---

For each of the molecules below, state its inhibition at 10 min, 10 µM.
target: CYP2C9 (Homo sapiens, UniProt P11712); experiment: Inhibition of human microsomal CYP2C9 at 10 uM after 10 mins by single quad LC/MS analysis; format: ADME; details: microsomes
Sequence (P11712 whole entry): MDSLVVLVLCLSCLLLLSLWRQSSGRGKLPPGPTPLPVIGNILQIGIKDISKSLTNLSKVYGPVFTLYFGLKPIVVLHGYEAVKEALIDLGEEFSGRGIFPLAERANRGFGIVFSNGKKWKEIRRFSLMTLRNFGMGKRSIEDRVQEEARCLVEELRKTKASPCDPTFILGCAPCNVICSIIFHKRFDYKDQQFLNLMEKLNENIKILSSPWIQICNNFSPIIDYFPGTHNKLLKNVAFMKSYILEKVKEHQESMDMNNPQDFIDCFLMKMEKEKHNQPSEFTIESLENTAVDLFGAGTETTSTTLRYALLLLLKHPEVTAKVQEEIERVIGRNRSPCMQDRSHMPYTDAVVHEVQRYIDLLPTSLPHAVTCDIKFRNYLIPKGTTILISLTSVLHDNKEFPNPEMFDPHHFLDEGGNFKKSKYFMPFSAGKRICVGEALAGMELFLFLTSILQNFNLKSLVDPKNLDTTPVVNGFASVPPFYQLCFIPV
The answer consists of two parts: a number and, after it, its unit.

Look over these answered cases.
- Chemical string: "CCCc1oc(C(=O)O)c(C)c1C"
  inhibition at 10 min, 10 µM: "0%"
- Chemical string: "CCc1oc(CCC(=O)O)c(C(=O)O)c1CC"
  inhibition at 10 min, 10 µM: "17%"
- Chemical string: "CCCCCc1oc(CCC(=O)O)c(C(=O)O)c1C"
  inhibition at 10 min, 10 µM: "9%"
- Chemical string: "CCCc1oc(CCC(=O)O)c(C(=O)O)c1CCC"
  inhibition at 10 min, 10 µM: "0%"
- Chemical string: "CCCc1oc(CCC)c(C(=O)O)c1C"
  inhibition at 10 min, 10 µM: "18%"
- Chemical string: "CCCc1oc(CCCO)c(C(=O)O)c1C"
  inhibition at 10 min, 10 µM: "3%"

State, in one line, measured inhibition at 10 min, 10 µM of CCCc1oc(CCCO)c(C(=O)OC)c1C
0%

---

test: AUC in mouse at 1 mg/kg, iv; type: ADME, organism-based; conditions: in vivo
Measured endpoint: AUC (µM·h)
Answers are plain numbers, in µM·h.

State, in one line, measured AUC of CCCc1oc(CCC(=O)O)c(C(=O)O)c1C
89.3

---

test: Drug excretion in human urine assessed as CMPF formation; assay type: ADME
Measured endpoint: Drug excretion

State, in one line, measured Drug excretion of CCCc1oc(CCC(=O)O)c(C(=O)O)c1C
1 to 5 mg/day

---

assay: Initial plasma concentration in mouse at 3 mg/kg, iv; type: ADME, organism-based
Measured endpoint: C0 (µM)
Numbers only, in µM.

State, in one line, measured C0 of CCCc1oc(CCC(=O)O)c(C(=O)O)c1C
130

---

assay: Drug metabolism in human microsomes at 4 uM after 30 mins by single quad LC/MS analysis; type: ADME, Microsome; details: read-out: Drug metabolism
metabolised at 0.5 h, 4 µM vs 5%: less than gives 1.0; not less than gives 0.0.

Example cases with answers are listed next.
- Chemical string: "CCCc1oc(C(=O)O)c(C)c1C"
  Class name: 0.0
- Chemical string: "COC(=O)CCc1oc(C)c(C)c1C(=O)OC"
  Class name: 1.0
- Chemical string: "CCCc1oc(CCCO)c(C(=O)O)c1C"
  Class name: 0.0
- Chemical string: "CCCc1oc(CCCO)c(C(=O)OC)c1C"
  Class name: 0.0
- Chemical string: "CCc1oc(CCC(=O)O)c(C(=O)O)c1CC"
  Class name: 1.0

# next molecule below
Is 5% strictly greater than the molecule's reported metabolised at 0.5 h, 4 µM? molecule: COC(=O)CCc1oc2c(c1C(=O)OC)CCCC2
0.0

---

assay: Drug metabolism in mouse microsomes at 4 uM after 30 mins by single quad LC/MS analysis; format: ADME, Microsome; conditions: read-out: Drug metabolism
For each of the compounds below, state its metabolised at 0.5 h, 4 µM.
The answer consists of two parts: a number and, after it, its unit.

- Chemical string: "COC(=O)CCc1oc(C)c(C)c1C(=O)OC"
  Measured endpoint: "metabolised at 0.5 h, 4 µM"
  Result: "16%"
- Chemical string: "CCc1oc(CCC(=O)O)c(C(=O)O)c1CC"
  Measured endpoint: "metabolised at 0.5 h, 4 µM"
  Result: "21%"
- Chemical string: "CCCc1oc(CCC(=O)O)c(C(=O)O)c1CCC"
  Measured endpoint: "metabolised at 0.5 h, 4 µM"
  Result: "7%"
- Chemical string: "CCCc1oc(CCCO)c(C(=O)OC)c1C"
  Measured endpoint: "metabolised at 0.5 h, 4 µM"
  Result: "100%"

Go through the list and state metabolised at 0.5 h, 4 µM for each entry.
1. CCCc1oc(CCCO)c(C(=O)O)c1C
2. CCCCCc1oc(CCC(=O)OC)c(C(=O)OC)c1C
3. COC(=O)CCc1oc2c(c1C(=O)OC)CCCC2
4. CCCCCc1oc(CCC(=O)O)c(C(=O)O)c1C
5. CCCc1oc(CCC)c(C(=O)O)c1C

["9%", "60%", "76%", "7%", "51%"]

Go through the list and state metabolised at 0.5 h, 4 µM for each entry.
1. CCCc1oc(CCC(=O)O)cc1C
2. CCCc1oc(C(=O)O)c(C)c1C

20%
0%

---

target: CYP2D6 (Homo sapiens); assay: Inhibition of human microsomal CYP2D6 at 10 uM after 3 mins by single quad LC/MS analysis; format: ADME; settings: microsomes
Sequence (P10635 whole entry): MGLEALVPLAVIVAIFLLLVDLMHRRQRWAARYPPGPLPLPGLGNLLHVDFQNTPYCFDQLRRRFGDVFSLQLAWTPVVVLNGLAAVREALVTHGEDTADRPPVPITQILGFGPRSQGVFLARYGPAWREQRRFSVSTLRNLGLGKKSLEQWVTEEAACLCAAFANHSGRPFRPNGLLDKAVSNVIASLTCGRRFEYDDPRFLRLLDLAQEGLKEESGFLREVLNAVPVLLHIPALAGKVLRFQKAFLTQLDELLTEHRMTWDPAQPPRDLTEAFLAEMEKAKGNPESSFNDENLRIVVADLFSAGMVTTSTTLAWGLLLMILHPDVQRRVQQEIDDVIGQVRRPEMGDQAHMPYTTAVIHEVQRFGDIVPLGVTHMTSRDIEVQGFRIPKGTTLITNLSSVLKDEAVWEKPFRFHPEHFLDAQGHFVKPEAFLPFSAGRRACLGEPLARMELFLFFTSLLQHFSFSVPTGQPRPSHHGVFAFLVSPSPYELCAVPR
For each of the molecules below, state its inhibition at 0.05 h, 10 µM.
Numbers only, in %.

Look over these answered cases.
- Chemical string: "CCCc1oc(CCC(=O)O)c(C(=O)O)c1C"
  Measured target: "CYP2D6 (Homo sapiens)"
  inhibition at 0.05 h, 10 µM / %: 0
- Chemical string: "CCCc1oc(CCC(=O)O)cc1C"
  Measured target: "CYP2D6 (Homo sapiens)"
  inhibition at 0.05 h, 10 µM / %: 0

Go through the list and state inhibition at 0.05 h, 10 µM for each entry.
1. CCCc1oc(C(=O)O)c(C)c1C
2. COC(=O)CCc1oc(C)c(C)c1C(=O)OC

[0, 12]

Go through the list and state inhibition at 0.05 h, 10 µM for each entry.
1. CCCc1oc(CCC(=O)O)c(C(=O)O)c1CCC
2. CCC(=O)c1oc(CCC(=O)O)c(C(=O)O)c1C
3. CCCc1oc(CCCO)c(C(=O)OC)c1C

0
11
0

---

experiment: Clearance in mouse at 1 mg/kg, iv; assay type: ADME, organism-based; conditions: in vivo
Measured endpoint: clearance (mL/min/kg)
Answers are plain numbers, in mL/min/kg.

State, in one line, measured clearance of CCCc1oc(CCC(=O)O)c(C(=O)O)c1C
0.66

---

molecular target: CYP3A4 (Homo sapiens, UniProt P08684); test: Inhibition of human microsomal CYP3A4 at 10 uM after 3 mins by single quad LC/MS analysis; type: ADME; settings: microsomes
Sequence (P08684 whole entry): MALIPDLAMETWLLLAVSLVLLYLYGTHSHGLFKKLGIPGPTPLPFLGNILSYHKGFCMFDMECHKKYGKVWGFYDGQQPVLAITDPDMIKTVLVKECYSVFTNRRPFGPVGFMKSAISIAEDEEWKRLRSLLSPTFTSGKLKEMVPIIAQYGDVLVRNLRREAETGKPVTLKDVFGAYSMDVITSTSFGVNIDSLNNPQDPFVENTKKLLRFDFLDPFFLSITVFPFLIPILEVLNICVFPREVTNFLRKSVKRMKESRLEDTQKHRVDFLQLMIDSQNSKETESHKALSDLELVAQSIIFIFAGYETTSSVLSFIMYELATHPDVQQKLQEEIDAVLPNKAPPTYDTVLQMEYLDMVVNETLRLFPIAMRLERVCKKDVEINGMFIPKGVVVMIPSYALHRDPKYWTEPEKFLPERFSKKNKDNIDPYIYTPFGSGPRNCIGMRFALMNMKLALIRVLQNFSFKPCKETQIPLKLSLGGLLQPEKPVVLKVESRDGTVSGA
Measured endpoint: inhibition at 0.05 h, 10 µM (%)
Numbers only, in %.

- Chemical string: "CCCCCc1oc(CCC(=O)O)c(C(=O)O)c1C"
  Measured target: "CYP3A4 (Homo sapiens, UniProt P08684)"
  inhibition at 0.05 h, 10 µM, %: 3
- Chemical string: "CCCc1oc(CCC(=O)O)cc1C"
  Measured target: "CYP3A4 (Homo sapiens, UniProt P08684)"
  inhibition at 0.05 h, 10 µM, %: 3

Attention now turns to another entry.
State, in one line, measured inhibition at 0.05 h, 10 µM of CCC(=O)c1oc(CCC(=O)O)c(C(=O)O)c1C
3

---

system: HEK293; test: Cytotoxicity against HEK293 cells assessed as fold change in capase3/7 activity by Caspase-Glo 3/7 assay relative to DMSO; type: cell-based; details: human
For each of the molecules below, state its fold change (FC).

- Chemical string: "CCCc1oc(CCC)c(C(=O)O)c1C"
  Result: "1 to 2"
- Chemical string: "CCc1oc(CCC(=O)OC)c(C(=O)OC)c1CC"
  Result: "0.9 to 1"
- Chemical string: "CCC[C@H]1C[C@H](C(=O)O)[C@@H](CCC(=O)O)O1"
  Result: "1 to 1.2"
- Chemical string: "CCc1oc(CCC(=O)O)c(C(=O)O)c1CC"
  Result: 1
- Chemical string: "CCCc1oc(CCC(=O)O)c(C(=O)O)c1CCC"
  Result: 1
- Chemical string: "CCC(=O)c1oc(CCC(=O)O)c(C(=O)O)c1C"
  Result: "1 to 1.1"
- Chemical string: "COC(=O)CCc1oc2c(c1C(=O)OC)CCCC2"
  Result: "1 to 1.1"
- Chemical string: "CCCc1oc(CCC(C)=O)c(C(C)=O)c1C"
  Result: 0.9

Go through the list and state fold change (FC) for each entry.
1. CCC[C@H]1C[C@H](C(=O)OC)[C@@H](CCC(=O)OC)O1
2. CCCc1oc(C(=O)O)c(C)c1C
3. CCCCCc1oc(CCC(=O)OC)c(C(=O)OC)c1C

["1 to 1.1", "1 to 1.2", "1 to 1.2"]

Go through the list and state fold change (FC) for each entry.
1. CCCc1oc(CCCO)c(C(=O)OC)c1C
2. CCCc1oc(CCC(=O)O)c(C(=O)O)c1C

1 to 1.1
0.8 to 1.1
